// provenance: patent US10053453B2

Measurement record for Human BACE1 (Homo sapiens, UniProt P56817); quantity recorded: IC50.

- molecule: "NC1=NC2(CO1)c1cc(-c3cncnc3)ccc1CC2N1CCOCC1 (stereo not drawn)"
  IC50: "> 5 µM"
- molecule: "COCCC1(C)Cc2ccc(-c3cc(C#N)cc(OC)c3)cc2C12COC(N)=N2 (stereo not drawn)"
  IC50: "> 5 µM"

Consider the record given below.
Input line: Given the entry [2H]C1([2H])OC(N)=NC12c1cc(/C(C)=N/OCC)ccc1C[C@]21CC[C@@H](OC)CC1 (stereo partly drawn) , report its measured IC50.
Output line: > 5 µM

###

pIC50 for assorted molecules
Target: Human BACE2 (Homo sapiens)
Construct: the soluble part of the human β-Secretase2 (AA1-AA473) was cloned using BACE2(1-473)-(AVT)-Fc-pDEST12.2 mammalian expression vector; AVT linker (C); made in house
Sequence (Q9Y5Z0 21-473): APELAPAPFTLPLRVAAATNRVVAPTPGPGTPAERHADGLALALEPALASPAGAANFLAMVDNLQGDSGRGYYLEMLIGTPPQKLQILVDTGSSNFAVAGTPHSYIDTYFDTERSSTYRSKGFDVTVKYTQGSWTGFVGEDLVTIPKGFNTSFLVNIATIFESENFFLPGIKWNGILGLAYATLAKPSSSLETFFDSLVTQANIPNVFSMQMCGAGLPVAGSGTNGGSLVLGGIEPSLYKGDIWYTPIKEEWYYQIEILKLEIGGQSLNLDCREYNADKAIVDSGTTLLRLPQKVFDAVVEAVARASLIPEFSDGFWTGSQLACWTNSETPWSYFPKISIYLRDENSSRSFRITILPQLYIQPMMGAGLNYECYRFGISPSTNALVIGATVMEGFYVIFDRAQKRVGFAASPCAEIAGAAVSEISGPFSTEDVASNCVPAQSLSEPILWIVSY
Assay: TR-FRET assay
Assay type: biochemical
Conditions: enzyme 2.7 μg/mL, substrate 100 nM, pH4.5
pIC50: −log10 of the molar value.

Study these solved cases before continuing.
- molecule: "[2H]C([2H])([2H])O[C@H]1CC[C@@]2(Cc3ccc(-c4cnccn4)cc3[C@]23N=C(N)OC3([2H])[2H])C[C@@H]1C"
  experimental-target: "Human BACE2 (Homo sapiens)"
  reading: "< 5.30"
- molecule: "CO[C@H]1CC[C@]2(CC1)Cc1ccc(-c3ccnnc3)cc1C21COC(N)=N1 (stereo partly drawn)"
  experimental-target: "Human BACE2 (Homo sapiens)"
  reading: "< 5.30"

Input line: Given the entry NC1=NC2(CO1)c1cc(-c3cncnc3)ccc1CC2N1CCOCC1 (stereo not drawn) , report its measured pIC50.
Output line: < 5.80
